- System: Rattus norvegicus
- METHOD: Ulcerogenicity in Sprague-Dawley rat assessed as gastric lesions at 444 umol/kg, po
- Format: toxicity, organism-based, Stomach
- RUN_CONDITIONS: in vivo
MEASURED_ENDPOINT: Activity

Fill in: Activity on Rattus norvegicus, entry `CC(=O)OCC(COC(C)=O)OC(=O)c1ccccc1OC(C)=O`
Toxic

Fill in: Activity on Rattus norvegicus, entry `CC(=O)Oc1ccccc1C(=O)O`
Toxic

Fill in: Activity on Rattus norvegicus, entry `CCCCCCCCCC(=O)OCC(COC(=O)CCCCCCCCC)OC(=O)c1ccccc1OC(C)=O`
Non-toxic

Fill in: Activity on Rattus norvegicus, entry `CCCC(=O)OCC(COC(=O)CCC)OC(=O)c1ccccc1OC(C)=O`
Non-toxic

----------
- METHOD: Drug absorption in rat at 1192 umol/kg, po administered as emulsified solution
- Type: ADME, organism-based
- RUN_CONDITIONS: in vivo, read-out: Drug absorption
MEASURED_ENDPOINT: Fa (%)
Give just the number in %; leave the unit off.

Supply reported Fa belonging to this molecule: `CCCCCCCCCC(=O)OCC(COC(=O)CCCCCCCCC)OC(=O)c1ccccc1OC(C)=O`
100
